molecular target: human M3 receptor (Homo sapiens); construct: expressed in transfected cells; host or cells: CHO cells; test: Test for binding to human M3 receptor
Sequence (P20309 whole entry): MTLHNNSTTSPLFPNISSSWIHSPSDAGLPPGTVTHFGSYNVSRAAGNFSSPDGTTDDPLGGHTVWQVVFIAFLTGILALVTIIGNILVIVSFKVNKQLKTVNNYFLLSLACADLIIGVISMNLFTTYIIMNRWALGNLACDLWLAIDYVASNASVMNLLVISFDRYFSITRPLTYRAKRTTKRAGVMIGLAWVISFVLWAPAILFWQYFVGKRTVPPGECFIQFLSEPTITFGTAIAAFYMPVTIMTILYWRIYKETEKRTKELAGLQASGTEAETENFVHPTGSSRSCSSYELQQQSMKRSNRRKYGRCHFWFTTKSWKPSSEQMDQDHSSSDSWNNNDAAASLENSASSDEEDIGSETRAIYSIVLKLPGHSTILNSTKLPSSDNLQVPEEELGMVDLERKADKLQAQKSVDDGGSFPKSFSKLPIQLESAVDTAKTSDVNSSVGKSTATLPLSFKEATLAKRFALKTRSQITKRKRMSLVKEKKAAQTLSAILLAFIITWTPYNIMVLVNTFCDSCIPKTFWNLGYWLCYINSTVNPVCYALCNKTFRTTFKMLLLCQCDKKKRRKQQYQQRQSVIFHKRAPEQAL
Counter-ions that a name gives are not always drawn.
// values below are reported pKi
Bear in mind: pKi is minus log10 of a mol/L concentration; give just that figure.

Cc1nc(NCCCCCC(=O)N(C)CCN2CCC(OC(=O)Nc3ccccc3-c3ccccc3)CC2)sc1C(=O)N(C)CCCN(C)C(=O)CO[C@H]1Cc2ccccc2C12CCN(CC[C@@]1(c3ccc(F)cc3)CN(C(=O)c3cc(C(F)(F)F)cc(C(F)(F)F)c3)CO1)CC2 [Example 105, trihydrochloride] = 8.85
CN(CCN1CCC(OC(=O)Nc2ccccc2-c2ccccc2)CC1)C(=O)CCCCCNc1ncc(C(=O)N(C)CCCN(C)C(=O)CO[C@H]2Cc3ccccc3C23CCN(CC[C@@]2(c4ccc(F)cc4)CN(C(=O)c4cc(C(F)(F)F)cc(C(F)(F)F)c4)CO2)CC3)cn1 [Example 14, trihydrochloride] = 9.03
CN(CCN1CCC(OC(=O)Nc2ccccc2-c2ccccc2)CC1)C(=O)CCCCCNc1ccc(C(=O)N(CCCN(C)C(=O)CO[C@H]2Cc3ccccc3C23CCN(CC[C@@]2(c4ccc(F)cc4)CN(C(=O)c4cc(C(F)(F)F)cc(C(F)(F)F)c4)CO2)CC3)C2CC2)cc1 [Example 25, trihydrochloride] = 8.85

What the record says about CN(CCN1CCC(OC(=O)Nc2ccccc2-c2ccccc2)CC1)C(=O)CCCCCNc1ccc(N(C)C(=O)CCCN(C)C(=O)CO[C@H]2Cc3ccccc3C23CCN(CC[C@@]2(c4ccc(F)cc4)CN(C(=O)c4cc(C(F)(F)F)cc(C(F)(F)F)c4)CO2)CC3)cc1 [Example 84, trihydrochloride] : pKi is 8.92

What the record says about Cc1nc(N(C)CCCCCC(=O)N(C)CCN2CCC(OC(=O)Nc3ccccc3-c3ccccc3)CC2)sc1C(=O)N(C)CCN(C)C(=O)CO[C@H]1Cc2ccccc2C12CCN(CC[C@@]1(c3ccc(F)cc3)CN(C(=O)c3cc(C(F)(F)F)cc(C(F)(F)F)c3)CO1)CC2 [Example 108, trihydrochloride] : pKi is 8.52

What the record says about CN(CCN1CCC(OC(=O)Nc2ccccc2-c2ccccc2)CC1)C(=O)CCCCCNc1ccc(C(=O)N(C)CCCN(C)C(=O)CO[C@H]2Cc3ccccc3C23CCN(CC[C@@]2(c4ccc(F)cc4)CN(C(=O)c4cc(C(F)(F)F)cc(C(F)(F)F)c4)CO2)CC3)c(Cl)c1 [Example 85, trihydrochloride] : pKi is 8.72

* * *

molecular target: human NK2 receptor (Homo sapiens, UniProt P21452); construct: expressed in transfected cells; host or cells: COS cells; test: Test for binding to human NK2 receptor; settings: COS cells expressing human NK2 receptor, [3H]SR 48968 1 nM; Ki from IC50 and Kd; read-out: Ki
Sequence (P21452 whole entry): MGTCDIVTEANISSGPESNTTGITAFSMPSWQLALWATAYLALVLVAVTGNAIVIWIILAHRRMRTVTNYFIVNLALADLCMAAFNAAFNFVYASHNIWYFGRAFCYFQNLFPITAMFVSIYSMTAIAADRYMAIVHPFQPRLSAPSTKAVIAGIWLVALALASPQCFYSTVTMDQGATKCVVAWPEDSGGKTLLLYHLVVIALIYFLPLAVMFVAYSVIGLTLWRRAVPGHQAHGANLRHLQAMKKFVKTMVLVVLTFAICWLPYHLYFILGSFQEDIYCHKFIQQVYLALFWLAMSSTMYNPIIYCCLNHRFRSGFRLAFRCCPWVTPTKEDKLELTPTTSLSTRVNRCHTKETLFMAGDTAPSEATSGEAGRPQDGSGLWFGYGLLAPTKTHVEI
MEASURED PROPERTY: pKi
Bear in mind: pKi is minus log10 of a mol/L concentration; give just that figure.

CN(CCN1CCC(OC(=O)Nc2ccccc2-c2ccccc2)CC1)C(=O)CCCCCNCc1ccc(C(=O)N(C)CCCN(C)C(=O)CO[C@H]2Cc3ccccc3C23CCN(CC[C@@]2(c4ccc(F)cc4)CN(C(=O)c4cc(C(F)(F)F)cc(C(F)(F)F)c4)CO2)CC3)cc1 [Example 75] = 9.60

# input for lookup
What the record says about CN(CCN1CCC(OC(=O)Nc2ccccc2-c2ccccc2)CC1)C(=O)CCN(C)c1ccc(C(=O)N(C)CCCN(C)C(=O)CO[C@H]2Cc3ccccc3C23CCN(CC[C@@]2(c4ccc(F)cc4)CN(C(=O)c4cc(C(F)(F)F)cc(C(F)(F)F)c4)CO2)CC3)cc1 [Example 95] : pKi is 9.09
